biological target: ENL YEATS domain (association with H3K27cr) (Homo sapiens, UniProt Q03111); assay: biochemical; details: ENL (YEATS)-H3K27cr HTRF (IC50, μM), Table 1
Sequence (Q03111 1-148): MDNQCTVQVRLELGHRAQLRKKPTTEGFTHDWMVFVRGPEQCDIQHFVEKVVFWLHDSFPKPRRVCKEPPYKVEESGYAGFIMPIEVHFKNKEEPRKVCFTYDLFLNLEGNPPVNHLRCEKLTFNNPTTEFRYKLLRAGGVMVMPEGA
Measured Attribute: IC50 (µM)

Molecule Smiles	Unit Of Measurement	Value Relation Sign	Reported
CC(C)NC(=O)c1ccc2nc(-c3cccc(C(F)(F)F)c3)cn2c1	µM	=	15
CC(C)NC(=O)c1ccc2nc(-c3ccncc3)cn2c1	µM	=	4.1
CC(C)NC(=O)c1ccc2nc(-c3cccc(NS(=O)(=O)NCCO)c3)cn2c1	µM	=	0.43
CC(C)N(C)C(=O)c1ccc2nc(-c3ccccc3)cn2c1	µM	>	50
O=C(NC1CCC1)c1ccc2nc(-c3cccc(NS(=O)(=O)NCCN4CCC(F)(F)CC4)c3)cn2c1	µM	=	0.206
CC(C)NC(=O)c1ccc2nc(-c3cccc(NS(=O)(=O)NCc4ccc(F)cc4)c3)cn2c1	µM	=	1.02
CC(C)NC(=O)c1ccc2nc(Cn3ccnc3)cn2c1	µM	=	26.6
O=C(N[C@@H]1CCc2ccccc21)c1ccc2nc(-c3ccccc3)cn2c1	µM	=	2.29
CCC(CC)NC(=O)c1ccc2nc(-c3ccccc3)cn2c1	µM	>	50
